// reported pIC50 for each item listed
- system-under-test: T1, Fusion protein of LAG-3 extracellular region and hIgG1 Fc (human)
- T1 construct: Limits of the signal peptide are marked only by lost underlining; also called LAG-3-Fc; LAG-3-Fc fusion protein
- T1 sequence (chain, as listed by the source limits assumed): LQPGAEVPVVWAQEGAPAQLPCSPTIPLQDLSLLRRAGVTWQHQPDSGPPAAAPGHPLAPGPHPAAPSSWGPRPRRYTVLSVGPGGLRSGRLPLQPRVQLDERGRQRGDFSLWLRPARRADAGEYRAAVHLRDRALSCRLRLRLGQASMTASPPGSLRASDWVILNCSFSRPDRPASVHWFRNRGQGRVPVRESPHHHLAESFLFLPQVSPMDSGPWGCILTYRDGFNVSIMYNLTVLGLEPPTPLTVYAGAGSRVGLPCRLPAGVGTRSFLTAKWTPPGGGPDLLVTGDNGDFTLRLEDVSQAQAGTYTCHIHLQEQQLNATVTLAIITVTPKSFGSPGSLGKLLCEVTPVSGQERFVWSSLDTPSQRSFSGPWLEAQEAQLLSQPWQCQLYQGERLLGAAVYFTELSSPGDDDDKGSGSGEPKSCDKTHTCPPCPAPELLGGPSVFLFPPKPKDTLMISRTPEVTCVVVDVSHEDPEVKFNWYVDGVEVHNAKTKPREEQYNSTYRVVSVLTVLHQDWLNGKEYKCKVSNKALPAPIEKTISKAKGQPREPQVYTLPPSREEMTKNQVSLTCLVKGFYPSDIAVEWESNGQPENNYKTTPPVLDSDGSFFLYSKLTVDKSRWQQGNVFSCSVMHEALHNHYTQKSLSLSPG
- procedure-details: competition: biotin-LAG-3-Fc binding to fixed Daudi cells, antibody titrated
pIC50: −log10 of the molar value.
assay-readout: pIC50

binder: Hu303-010 (antibody, human IgG4 S228P, kappa, V domains shown, Humanized mAb303) VH: QVQLVQSGAEVKKPGASVKVSCKASGYTFTDYYMNWVRQAPGQRLEWMGVINPYNGDTAYNQKFKGRVTITVDKSASTAYMELSSLRSEDTAVYYCTRDDGYYDYYFDVWGQGTTVTVSS VL: DIQMTQSPSSLSASVGDRVTITCRASQDIGSRLNWYQQKPGKAPKRLIYATSTLDSGVPSRFSGSRSGTDFTLTISSLQPEDFATYYCLQLASSPPTFGGGTKVEIKR
assay-readout: pIC50
reported-result: 9.46
--
binder: Hu303-016 (antibody, human IgG4 S228P, kappa, V domains shown, Humanized mAb303) VH: QVQLVQSGAEVKKPGASVKVSCKASGYTLTDYYMNWVRQAPGQRLEWMGVINPYNGDTAYNQKFKGRVTITVDKSASTAYMELSSLRSEDTAVYYCTRDDGYYDYYFDVWGQGTTVTVSS VL: DIQMTQSPSSLSASVGDRVTITCRASQDIGSRLNWYQQKPGKAPKRLIYATSTLDSGVPKRFSGSRSGTDFTLTISSLQPEDFATYYCLQLASSPPTFGGGTKVEIKR
assay-readout: pIC50
reported-result: 9.40
--
binder: Hu229-016 (antibody, human IgG4 S228P, kappa, V domains shown, Humanized mAb229) VH: QVQLVQSGSELKKPGASVKVSCKASGYTFTTSGMSWVKQAPGQGLKWMGWINTYSGVPTYADDFKGRFVFSLDTSVSTAYLQISSLKAEDTATYFCARDNYDARDVYYYAMDYWGQGTTVTVSS VL: DIQMTQSPSSLSASVGDRVTITCRASENIYSNLAWYQQKPGKAPKLLIYAATNLADGVPSRFSGSGSGTDFTLTISSLQPEDFATYYCQHFWITPWTFGGGTKVEIKR
assay-readout: pIC50
reported-result: 9.06
--
binder: Hu303-019 (antibody, human IgG4 S228P, kappa, V domains shown, Humanized mAb303) VH: QVQLVQSGAEVKKPGASVKVSCKASGYTLTDYYMNWVRQAPGQRLEWIGVINPYNGDTAYNQKFKGRATLTVDKSASTAYMELSSLRSEDTAVYYCTRDDGYYDYYFDVWGQGTTVTVSS VL: DIQMTQSPSSLSASVGDRVTITCRASQDIGSRLNWYQQKPGKAPKLLIYATSTLDSGVPSRFSGSGSGTDFTLTISSLQPEDFATYYCLQLASSPPTFGGGTKVEIKR
assay-readout: pIC50
reported-result: 9.33
--
binder: Hu303-023 (antibody, human IgG4 S228P, kappa, V domains shown, Humanized mAb303) VH: QVQLVQSGAEVKKPGASVKVSCKASGYTLTDYYMNWVRQAPGQRLEWIGVINPYNGDTAYNQKFKGRATLTVDKSASTAYMELSSLRSEDTAVYYCTRDDGYYDYYFDVWGQGTTVTVSS VL: DIQMTQSPSSLSASVGDRVTLTCRASQDIGSRLNWLQQKPGGAFKRLIYATSTLDSGVPKRFSGSRSGTDFTLTISSLQPEDFADYYCLQLASSPPTFGGGTKVEIKR
assay-readout: pIC50
reported-result: 9.43
